# System: muscarinic cholinergic receptor
# Type: cell-based, chick
MEASURED PARAMETER: agonistic effect on Ca2+ mobilization

>>> result("CC[C@@H]1C(=O)OC[C@@H]1Cc1cncn1C [Pilocarpine, pilocarpine]")
"No reaction"
>>> result("CC(=O)OCC[N+](C)(C)C [Acetylcholine, acetylcholine]")
"full agonists"
>>> result("C[N+](C)(C)CCOC(N)=O [Carbachol, carbachol]")
"full agonists"
>>> result("O=C1CCCN1CC#CCN1CCCC1 [Oxotremorine, oxotremorine]")
"No reaction"

###

# Tested on: muscarinic binding sites
# Set-up: species or system chick
nH, phenomenological cooperativity model (Hill coefficient) overview
MEASURED PARAMETER: nH, phenomenological cooperativity model (Hill coefficient)

>>> result_number("CN1[C@@H]2CC[C@H]1C[C@@H](OC(=O)C(CO)c1ccccc1)C2 (some centres unmarked)")
0.79
>>> result_number("CN1CCN(CC(=O)N2c3ccccc3C(=O)Nc3cccnc32)CC1 [Pirenzepine, pirenzepine]")
1.31
>>> result_number("CC(C[N+](C)(C)C)OC(N)=O (centres unmarked)")
0.65
>>> result_number("CC[C@@H]1C(=O)OC[C@@H]1Cc1cncn1C")
0.68
>>> result_number("C[N+](C)(C)CCOC(N)=O")
0.41
